# target-or-test-system: mouse ACVR2A (mouse, UniProt P27038 20-135, limits assumed); further: test concentration or dose not given here
# Sequence (P27038 20-135 limits assumed): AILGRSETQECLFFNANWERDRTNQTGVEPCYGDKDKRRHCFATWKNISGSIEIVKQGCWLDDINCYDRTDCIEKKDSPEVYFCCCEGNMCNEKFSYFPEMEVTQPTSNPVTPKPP
# protocol-summary: ELISA
# optical density per entry
Express the result in OD but write the number alone.

Use the examples below as a reference point.
376_D05 (antibody, V domains shown, VH/VL only) VH: EVQLLESGGGLVQPGGSLRLSCAASGFTFSSYSMNWVRQAPGKGLEWVSNINYNGGYKGYADSVKGRFTISRDNSKNTLYLQMNSLRAEDTAVYYCARSANWHDTALDYWGQGTLVTVSS VL: DIQMTQSPSSLSASVGDRVTITCRASQSIVSYVNWYQQKPGKAPKLLIYAATSLASGVPSRFSGSGSGTDFTLTISSLQPEDFATYYCQQSYDTPLTFGGGTKVEIK = 3.71
369_A10 (antibody, V domains shown, VH/VL only) VH: EVQLLESGGGLVQPGGSLRLSCAASGFTFDSYSMNWVRQAPGKGLEWVAGINYNSGYTGYADSVKGRFTISRDNSKNTLYLQMNSLRAEDTAVYYCARSATWHDTHLDYWGQGTLVTVSS VL: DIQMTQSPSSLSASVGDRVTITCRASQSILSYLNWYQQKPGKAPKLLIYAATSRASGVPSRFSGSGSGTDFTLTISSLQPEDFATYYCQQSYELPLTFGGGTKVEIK = 3.14
376_A04 (antibody, V domains shown, VH/VL only) VH: EVQLLESGGGLVQPGGSLRLSCAASGFTFDSYSMNWVRQAPGKGLEWVSNINYNGGYTSYADSVKGRFTISRDNSKNTLYLQMNSLRAEDTAVYYCARSANWHDTALDYWGQGTLVTVSS VL: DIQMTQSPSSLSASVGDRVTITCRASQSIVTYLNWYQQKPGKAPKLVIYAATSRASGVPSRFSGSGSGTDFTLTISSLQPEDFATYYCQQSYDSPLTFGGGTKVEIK = 3.58
375_C12 (antibody, V domains shown, VH/VL only) VH: EVQLLESGGGLVQPGGSLRLSCAASGFTFSSYSMNWVRQAPGKGLEWVANINYNGGYTGYADSVKGRFTISRDNSKNTLYLQMNSLRAEDTAVYYCARSATWHDTHLDYWGQGTLVTVSS VL: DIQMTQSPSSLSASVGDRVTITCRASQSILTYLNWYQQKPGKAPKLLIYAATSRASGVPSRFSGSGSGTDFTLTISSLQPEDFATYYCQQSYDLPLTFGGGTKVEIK = 3.33

// below: optical density requested for another binder
Prompt line: Give the measured optical density of 371_G03 (antibody, V domains shown, VH/VL only) VH: EVQLLESGGGLVQPGGSLRLSCAASGFTFSSYGMNWVRQAPGKGLEWVANINYNGGYKGYADSVKGRFTISRDNSKNTLYLQMNSLRAEDTAVYYCARSATWHDTHLDYWGQGTLVTVSS VL: DIQMTQSPSSLSASVGDRVTITCRASQSIVTYVNWYQQKPGKAPKLVIYAATSLASGVPSRFSGSGSGTDFTLTISSLQPEDFATYYCQQSYNLPLTFGGGTKVEIK .
Response line: 3.27
